# TARGET: T1, hBack
# T1 chimeric human/tetraodon Sortilin extracellular region, BAP tag: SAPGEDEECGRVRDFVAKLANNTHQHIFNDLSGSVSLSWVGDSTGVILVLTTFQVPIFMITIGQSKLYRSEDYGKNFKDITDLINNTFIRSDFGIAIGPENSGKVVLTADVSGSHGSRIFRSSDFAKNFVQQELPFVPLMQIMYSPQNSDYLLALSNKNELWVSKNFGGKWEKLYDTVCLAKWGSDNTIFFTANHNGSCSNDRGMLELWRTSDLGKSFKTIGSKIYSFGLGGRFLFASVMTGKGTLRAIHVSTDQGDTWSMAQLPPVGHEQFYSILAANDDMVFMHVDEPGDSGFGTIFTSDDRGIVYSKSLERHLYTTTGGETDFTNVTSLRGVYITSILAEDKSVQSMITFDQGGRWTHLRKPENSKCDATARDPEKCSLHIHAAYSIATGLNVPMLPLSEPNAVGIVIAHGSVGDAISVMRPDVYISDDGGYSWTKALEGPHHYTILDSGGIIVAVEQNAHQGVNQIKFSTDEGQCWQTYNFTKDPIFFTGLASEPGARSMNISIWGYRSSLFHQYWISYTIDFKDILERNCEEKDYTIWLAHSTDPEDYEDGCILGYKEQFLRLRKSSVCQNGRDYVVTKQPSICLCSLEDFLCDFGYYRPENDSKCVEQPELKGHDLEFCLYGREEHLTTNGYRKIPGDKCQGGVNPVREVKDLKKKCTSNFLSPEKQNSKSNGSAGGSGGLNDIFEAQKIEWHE
# ASSAY OVERVIEW: BLI (Octet384RED)
OBSERVABLE: EC50 (ng/mL)
Numbers only, in ng/mL.

Solved cases below.
[
  {
    "BINDER": "Antibody 6003-083 (antibody, human IgG1, V domains shown) VH: EVQLLESGGGLVQPGGSLRLSCAASGFTFSSYAMSWVRQAPGKGLEWVSTISGRGGSTYYADSVKGRFTISRDNSKNTLYLQMNSLRAEDTAVYYCAIVATMYWYFDLWGRGTLVTVSS VL: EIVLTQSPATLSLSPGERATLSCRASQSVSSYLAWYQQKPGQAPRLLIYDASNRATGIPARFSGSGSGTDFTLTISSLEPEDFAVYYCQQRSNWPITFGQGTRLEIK",
    "EC50 / ng/mL": 1.34
  },
  {
    "BINDER": "Antibody 6003-056 (antibody, human IgG1, V domains shown) VH: EVQVLESGGGLVQPGGSLRLSCVASGFTFSSYAMHWVRQAPGKGLEWVSAISGRGGSTYYADSVKGRFTISRDNSKNTLYLQMNSLRAEDTAVYYCAIIPSLYWYFDLWGRGTLVTVSS VL: EIVLTQSPATLSLSPGERATLSCRASQSVSSFLAWYQQKPGQAPRLLIYDASNRATGIPARFSGSGSGTDFTLTISSLEPEDFAVYYCQQRSNWPLTFGGGTKVEIK",
    "EC50 / ng/mL": 1.14
  },
  {
    "BINDER": "Antibody 6003-030 (antibody, human IgG1, V domains shown, Human antibody (HuMab); also called antibody 30; mAb30) VH: EVQVLESGGGLVQPGGSLRLSCAASGFTFSSYAMSWVRQAPGKGLEWVSTISGRGGNTYYADSVKGRFTISRDNSKNTLYLQMDSLRAEDTAVYYCAIIPSLYWYFDLWGRGTLVTVSS VL: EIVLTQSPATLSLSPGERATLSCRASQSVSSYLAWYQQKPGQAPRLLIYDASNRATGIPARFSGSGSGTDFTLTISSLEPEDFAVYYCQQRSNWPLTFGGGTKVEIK",
    "EC50 / ng/mL": 0.85
  },
  {
    "BINDER": "Antibody 6003-1286 (antibody, human IgG1, V domains shown) VH: EVQLLESGGGLVQPGGSLRLSCAASGFTFSSYAMSWVRQAPGKGLEWVSTISGRGGNTYYADSVKGRFTISRDNSKNTLYLQMNSLRAEDAAVYYCANIYSHYWYFDLWGRGTLVTVSS VL: EIVLTQSPATLSLSPGERATLSCRASQSVNSYLAWYQQKPGQAPRLLIYDASNRATGIPARFSGSGSGTDFTLTISSLEPEDFAVYYCQQRSNWPLTFGGGTKVEIK",
    "EC50 / ng/mL": 1.02
  }
]

Switching to the query record.
Exam item: Find the measured EC50 of Antibody 6003-423 (antibody, human IgG1, V domains shown) VH: EVQLLESGGGLVQPGGSLRLSCEASGFTFRSYVMSWVRQAPGKGLEWVSTISGGGGNTNYTDSVKGRFTISRDNSKNTLYLQMNSLRAEDTAVYYCAKNWGSGFDYWGQGTLVTVSS VL: EIVLTQSPATLSLSPGERATLSCRASQSVSSYLAWYQQKPGQAPRLLIYDASNRATGIPARFSGSGSGTDFTLTISSLEPEDFAVYYCQQRSNWLIFTFGPGTKVDIK and report it.
Marked response: 4
